- experiment_description: Plasma pharmacokinetics and brain distribution after single IV, IP and oral administration
- Assay type: in vivo
- applied_conditions: male, C57BL/6, mouse; plasma, IV 2 mg/kg; read-out: Vss
Counter-ions that a name gives are not always drawn.

molecule: [2H]C1([2H])Oc2ccc(Nc3nc(-c4c(C)nc5ccccn45)cs3)cc2O1 [Compound 17, hydrochloride]
Vd [L/kg]: 4.4

* * *

- experiment_description: Plasma pharmacokinetics and brain distribution after single IV, IP and oral administration
- Assay type: in vivo
- applied_conditions: male, C57BL/6, mouse, in vivo, iv, 2 mg/kg, Mean brain conc.
Counter-ions that a name gives are not always drawn.

molecule: [2H]C([2H])([2H])Oc1ccc(Nc2nc(-c3c(C)nc4ccccn34)cs2)cc1 [Compound 15, hydrochloride]
concentration at 24 h, ng/g: 0
--
molecule: [2H]C1([2H])Oc2ccc(Nc3nc(-c4c(C)nc5ccccn45)cs3)cc2O1 [Compound 17, hydrochloride]
concentration at 24 h, ng/g: 0

* * *

- experiment_description: Plasma pharmacokinetics and brain distribution after single IV, IP and oral administration
- Format: in vivo
- applied_conditions: male, C57BL/6, mouse, brain/plasma, iv, 10 mg/kg, IV 10 mg/kg, 0.08 hr; read-out: Brain-to-plasma ratio
Counter-ions that a name gives are not always drawn.

compound: Cc1nc2ccccn2c1-c1csc(Nc2ccc3c(c2)OC(F)(F)O3)n1 [Compound 16, hydrochloride]
Kp at 0.08 h: 1.05
